# TARGET_OR_TEST_SYSTEM: Carboxylic ester hydrolase (Sus scrofa)
# EXPERIMENTAL_DETAILS: Inhibition of porcine cholesterol esterase at 1 nM using para-nitrophenyl butyrate as substrate after 5 mins in presence of sodium taurocholate by spectrophotometric method relative to control
MEASURE: inhibition (%)
Quick note: give the figure in %, leave out the unit.

-- ask Checklist item: inhibition tested on Carboxylic ester hydrolase (Sus scrofa), entry O=c1cc(-c2ccc(OC(F)(F)F)cc2)oc2c1ccc1ccccc12 , value?
-- reply 20

-- ask Checklist item: inhibition tested on Carboxylic ester hydrolase (Sus scrofa), entry O=c1cc(-c2ccc(F)c(C(F)(F)F)c2)oc2c1ccc1ccccc12 , value?
-- reply 21

-- ask Checklist item: inhibition tested on Carboxylic ester hydrolase (Sus scrofa), entry O=c1cc(-c2ccccc2Br)oc2c1ccc1ccccc12 , value?
-- reply 51

-- ask Checklist item: inhibition tested on Carboxylic ester hydrolase (Sus scrofa), entry O=c1cc(-c2ccc(C(F)(F)F)cc2F)oc2c1ccc1ccccc12 , value?
-- reply 33

-- ask Checklist item: inhibition tested on Carboxylic ester hydrolase (Sus scrofa), entry O=c1cc(-c2cccc([N+](=O)[O-])c2)oc2c1ccc1ccccc12 , value?
-- reply 36

-- ask Checklist item: inhibition tested on Carboxylic ester hydrolase (Sus scrofa), entry COc1ccc(-c2cc(=O)c3ccc4ccccc4c3o2)cc1 , value?
-- reply 11

-- ask Checklist item: inhibition tested on Carboxylic ester hydrolase (Sus scrofa), entry O=c1cc(-c2cc([N+](=O)[O-])cc([N+](=O)[O-])c2)oc2c1ccc1ccccc12 , value?
-- reply 41

-- ask Checklist item: inhibition tested on Carboxylic ester hydrolase (Sus scrofa), entry O=c1cc(-c2cccc(Cl)c2)oc2c1ccc1ccccc12 , value?
-- reply 51

-- ask Checklist item: inhibition tested on Carboxylic ester hydrolase (Sus scrofa), entry O=c1cc(-c2ccc(F)cc2F)oc2c1ccc1ccccc12 , value?
-- reply 51

-- ask Checklist item: inhibition tested on Carboxylic ester hydrolase (Sus scrofa), entry O=c1cc(-c2ccc(F)cc2C(F)(F)F)oc2c1ccc1ccccc12 , value?
-- reply 28

-- ask Checklist item: inhibition tested on Carboxylic ester hydrolase (Sus scrofa), entry O=c1cc(-c2cccc(CCl)c2)oc2c1ccc1ccccc12 , value?
-- reply 35

---

# TARGET_OR_TEST_SYSTEM: Carboxylic ester hydrolase (Sus scrofa)
# Sequence (whole entry): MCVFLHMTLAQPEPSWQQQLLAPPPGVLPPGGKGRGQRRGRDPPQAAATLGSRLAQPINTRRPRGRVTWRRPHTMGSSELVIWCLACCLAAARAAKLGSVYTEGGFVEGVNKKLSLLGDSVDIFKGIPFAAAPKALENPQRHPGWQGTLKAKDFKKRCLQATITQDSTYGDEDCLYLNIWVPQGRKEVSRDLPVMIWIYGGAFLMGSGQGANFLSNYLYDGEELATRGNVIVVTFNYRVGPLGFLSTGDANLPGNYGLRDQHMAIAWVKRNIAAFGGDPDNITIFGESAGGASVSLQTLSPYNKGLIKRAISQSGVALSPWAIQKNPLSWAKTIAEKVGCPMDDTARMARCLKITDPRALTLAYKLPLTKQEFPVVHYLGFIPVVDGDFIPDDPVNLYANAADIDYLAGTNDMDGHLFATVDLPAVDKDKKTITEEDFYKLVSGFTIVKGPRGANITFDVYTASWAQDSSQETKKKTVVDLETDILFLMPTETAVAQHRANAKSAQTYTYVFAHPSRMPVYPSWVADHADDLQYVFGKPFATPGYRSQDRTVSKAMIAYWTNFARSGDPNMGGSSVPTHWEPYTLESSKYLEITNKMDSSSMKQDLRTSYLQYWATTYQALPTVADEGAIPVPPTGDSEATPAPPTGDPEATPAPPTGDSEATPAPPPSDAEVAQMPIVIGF
# EXPERIMENTAL_DETAILS: Inhibition of porcine cholesterol esterase at 5 nM using para-nitrophenyl butyrate as substrate after 5 mins in presence of sodium taurocholate by spectrophotometric method relative to control
Give Y when the value for inhibition is at least 40%. Give N when it is less.

-- ask Tell me whether inhibition is at least 40% here: O=c1cc(-c2c(F)cccc2F)oc2c1ccc1ccccc12
-- reply Y

-- ask Tell me whether inhibition is at least 40% here: O=c1cc(-c2ccccc2F)oc2c1ccc1ccccc12
-- reply Y

-- ask Tell me whether inhibition is at least 40% here: O=c1cc(-c2ccccc2)oc2c1ccc1ccccc12
-- reply N

-- ask Tell me whether inhibition is at least 40% here: COc1ccc(-c2cc(=O)c3ccc4ccccc4c3o2)cc1
-- reply N

-- ask Tell me whether inhibition is at least 40% here: O=c1cc(-c2ccc(CCl)cc2)oc2c1ccc1ccccc12
-- reply Y

-- ask Tell me whether inhibition is at least 40% here: O=c1cc(-c2ccc(F)cc2)oc2c1ccc1ccccc12
-- reply Y

---

# TARGET_OR_TEST_SYSTEM: Carboxylic ester hydrolase (Sus scrofa)
# EXPERIMENTAL_DETAILS: Inhibition of porcine cholesterol esterase at 25 nM using para-nitrophenyl butyrate as substrate after 5 mins in presence of sodium taurocholate by spectrophotometric method relative to control
Give 1 when the value for inhibition is at least 80%. Give -1 when it is less.

-- ask Tell me whether inhibition is at least 80% here: O=c1cc(-c2ccccc2F)oc2c1ccc1ccccc12
-- reply 1

-- ask Tell me whether inhibition is at least 80% here: Cc1ccc(-c2cc(=O)c3ccc4ccccc4c3o2)cc1
-- reply -1

-- ask Tell me whether inhibition is at least 80% here: O=c1cc(-c2cccc(F)c2)oc2c1ccc1ccccc12
-- reply 1

-- ask Tell me whether inhibition is at least 80% here: O=c1cc(-c2cccc(OC(F)(F)F)c2)oc2c1ccc1ccccc12
-- reply -1

-- ask Tell me whether inhibition is at least 80% here: O=c1cc(-c2cc([N+](=O)[O-])cc([N+](=O)[O-])c2)oc2c1ccc1ccccc12
-- reply -1

-- ask Tell me whether inhibition is at least 80% here: O=c1cc(-c2ccc(F)cc2C(F)(F)F)oc2c1ccc1ccccc12
-- reply -1

-- ask Tell me whether inhibition is at least 80% here: COc1ccc(-c2cc(=O)c3ccc4ccccc4c3o2)cc1OC
-- reply -1

-- ask Tell me whether inhibition is at least 80% here: O=c1cc(-c2cccc([N+](=O)[O-])c2)oc2c1ccc1ccccc12
-- reply -1

-- ask Tell me whether inhibition is at least 80% here: COc1ccc(-c2cc(=O)c3ccc4ccccc4c3o2)c(OC)c1
-- reply -1

-- ask Tell me whether inhibition is at least 80% here: O=c1cc(-c2c(F)cccc2C(F)(F)F)oc2c1ccc1ccccc12
-- reply -1

-- ask Tell me whether inhibition is at least 80% here: O=c1cc(-c2cccc(CCl)c2)oc2c1ccc1ccccc12
-- reply -1

-- ask Tell me whether inhibition is at least 80% here: O=c1cc(-c2cc(F)cc(F)c2)oc2c1ccc1ccccc12
-- reply 1

---

# TARGET_OR_TEST_SYSTEM: Carboxylic ester hydrolase (Sus scrofa)
# EXPERIMENTAL_DETAILS: Inhibition of porcine cholesterol esterase at 1 nM using para-nitrophenyl butyrate as substrate after 5 mins in presence of sodium taurocholate by spectrophotometric method relative to control
Give y when the value for inhibition is at least 30%. Give n when it is less.

-- ask Tell me whether inhibition is at least 30% here: COc1ccc(-c2cc(=O)c3ccc4ccccc4c3o2)cc1OC
-- reply n

-- ask Tell me whether inhibition is at least 30% here: O=c1cc(-c2ccc(CCl)cc2)oc2c1ccc1ccccc12
-- reply y

-- ask Tell me whether inhibition is at least 30% here: Cc1ccc(-c2cc(=O)c3ccc4ccccc4c3o2)cc1
-- reply n

-- ask Tell me whether inhibition is at least 30% here: O=c1cc(-c2c(F)cccc2C(F)(F)F)oc2c1ccc1ccccc12
-- reply y

-- ask Tell me whether inhibition is at least 30% here: O=c1cc(-c2cc(F)ccc2F)oc2c1ccc1ccccc12
-- reply y

-- ask Tell me whether inhibition is at least 30% here: O=c1cc(-c2cccc(Cl)c2Cl)oc2c1ccc1ccccc12
-- reply y

-- ask Tell me whether inhibition is at least 30% here: O=c1cc(-c2cc(F)ccc2C(F)(F)F)oc2c1ccc1ccccc12
-- reply n

-- ask Tell me whether inhibition is at least 30% here: O=c1cc(-c2cccc(Br)c2)oc2c1ccc1ccccc12
-- reply y

-- ask Tell me whether inhibition is at least 30% here: O=c1cc(-c2ccccc2C(F)(F)F)oc2c1ccc1ccccc12
-- reply n

-- ask Tell me whether inhibition is at least 30% here: O=c1cc(-c2ccc(I)cc2)oc2c1ccc1ccccc12
-- reply y

-- ask Tell me whether inhibition is at least 30% here: O=c1cc(-c2ccc(Br)cc2)oc2c1ccc1ccccc12
-- reply y

-- ask Tell me whether inhibition is at least 30% here: O=c1cc(-c2ccccc2F)oc2c1ccc1ccccc12
-- reply y

-- ask Tell me whether inhibition is at least 30% here: O=c1cc(-c2cccc(F)c2)oc2c1ccc1ccccc12
-- reply y

-- ask Tell me whether inhibition is at least 30% here: O=c1cc(-c2c(F)cccc2F)oc2c1ccc1ccccc12
-- reply y

-- ask Tell me whether inhibition is at least 30% here: O=c1cc(-c2ccc(C(F)(F)F)cc2)oc2c1ccc1ccccc12
-- reply n

-- ask Tell me whether inhibition is at least 30% here: O=c1cc(-c2ccc([N+](=O)[O-])cc2)oc2c1ccc1ccccc12
-- reply y

-- ask Tell me whether inhibition is at least 30% here: CC(=O)Oc1ccc(-c2cc(=O)c3ccc4ccccc4c3o2)cc1
-- reply n
